Each recorded value in this set is attributed to paper PMC5540273.

Tested on: TRPM6;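 note: KINOMEscan kinase panel screen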
Details: concentration: 1 μM, replicates: in singlicate; n = 1
Measured Quantity: %Inh (%)

> print(dat)
                                   compound  measured.quantity  unit.of.measurement  measurement
1  COc1cc(Nc2ccnc3cc(-c4ccncc4)ccc23)cc(OC)c1OC.Cl [GW494610]               %Inh                    %           16
2  Cl.Cl.NCC(NC(=O)c1cc(-c2cccnc2)c(-c2ccnc3[nH]ccc23)s1)c1ccccc1 (stereo not shown) [GSK1323434]               %Inh                    %           34
3  Fc1cc(Cl)ccc1Nc1ccnc2cc(-c3ccc(CN4CCSCC4)o3)ccc12 [GW560106]               %Inh                    %            3
4  Cc1ccccc1CC(=O)N1CCc2cc(-c3cn(C)c4ncnc(N)c34)ccc21 [GSK2603346]               %Inh                    %           40
5  COc1cc(Nc2nccc(N3CCC(NS(=O)(=O)c4ccc(NC(C)=O)cc4)CC3)n2)cc(OC)c1OC [GSK1379825]               %Inh                    %            0
6  CC(=O)Nc1cn2nc(Oc3cccc(NC(=O)c4cccc(C(F)(F)F)c4)c3)ccc2n1               %Inh                    %            0
7  COc1cccc(CC(=O)N2CCc3cc(-c4cn(C)c5ncnc(N)c45)ccc32)c1 [GSK2608899]               %Inh                    %            0
